# maps each entry to its GI50
System: KM-20L2
Test: NCI tumour cell line growth inhibition, 48 h
Calls of active or inactive are those of the source. No stated cut-off is given here; in the data, active = GI50 up to about 1.1 µM and inactive = higher.
OBSERVABLE: GI50

In [3]: df
Out[3]:
                                    compound       endpoint_result
 0  CC1NOC(=O)C1/N=N/c1ccccc1Br (stereo not drawn)    38.3 µM (inactive)
 1  COc1cc2c(c(OC)c1OC)-c1ccc(OC)c(=O)cc1C(NC(=O)COc1ccccc1)CC2 (stereo not drawn)    < 0.01 µM (active)
 2  CC(=O)C1(O)Cc2c(O)c3c(c(O)c2C(OC2CC(N)C(O)C(C)O2)C1)C(=O)c1ccccc1C3=O (stereo not drawn)  < 0.0152 µM (active)
 3  COc1ccccc1NC(=O)C1=C(C)NC(C)=C(C(=O)Nc2ccccc2OC)C1c1ccccc1F    92.9 µM (inactive)
 4        c1ccc(N/N=C2\NN=C(c3ccccc3)CS2)cc1    6.46 µM (inactive)
 5  CNC(=O)C(C)C1CCC2(C)C=CC(=O)C(C)=C2C1O (stereo not drawn)   > 100 µM (inactive)
 6                   COC(=O)CCc1cccnc1/C=N/O   > 100 µM (inactive)
 7  O=C1CCCCC/C=C2/CC[C@H](Sc3ccccc3)[C@@H]12   > 100 µM (inactive)
 8  O=C(CC1(O)C(=O)Nc2c(Cl)cc(Cl)cc21)c1ccco1 (stereo not drawn)    48.3 µM (inactive)
 9  N/N=C1/C(=O)N(c2ccc(Cl)cc2)C(=O)C(=O)C1c1nc2ccccc2s1 (stereo not drawn)   > 100 µM (inactive)
10       O=C(NP(=O)(N1CC1)N1CC1)c1cc(I)ccc1I   > 100 µM (inactive)
11  COc1cc2c(cc1OC)C1c3ccccc3C(C#N)(C2)N(C(=O)c2ccccc2)C1O (stereo not drawn)    82.4 µM (inactive)
12   O=C(Nc1ccccc1)O/N=C1/CCCC/C1=C\c1ccccc1    19.6 µM (inactive)
